These entries and their values trace back to PubChem BioAssay (NCI).

This listing pairs compounds with measured growth.
Tested on: NCI/ADR-RES ovarian
test-summary: NCI-60 one-dose screen, 48 h (100 = growth as untreated, 0 = no growth, -100 = all killed)
study-conditions: 10 µM unless noted
The panel holds about 83,000 compounds, 20% with a hit somewhere; the sample as a whole holds those more often.
// units = %; emit number, no label

C#C[C@]1(O)CC[C@H]2[C@@H]3CC=C4c5sc(Nc6ncccc6C)nc5CC[C@]4(C)[C@H]3CC[C@@]21C : 28.1
CN(C)CCNc1ccc2ncc(C#Cc3cncc(C(=O)Nc4ccc(CN5CCN(C)CC5)c(C(F)(F)F)c4)c3)n2n1 : 76
CC(=O)C1=C(C)NC(NNc2ccccc2)=NC1c1ccc([N+](=O)[O-])cc1 (stereo not drawn) : 91.4
NS(=O)(=O)c1nnc(/N=C/c2c(O)[nH]c3ccccc23)s1 : 107
N#Cc1nc(-c2ccc(Cl)cc2)oc1N1CCC(S(=O)(=O)N2CCOCC2)CC1 : 100
CC[C@]12C=CCN3CC[C@@]4(c5ccc(OC)cc5N(C)[C@H]4[C@@](O)(C(=O)OC)[C@@H]1OC(=O)CCN1CCc4ccccc4C1)[C@@H]32 : 80.5
Cc1ccccc1Nc1nc(SC(C)C)nc(-c2ccccc2)c1C#N : 34.7

Then this compound:
Which growth is reported for this compound? O=C(N/N=C/c1cc2ccccc2nc1Cl)c1cc(-c2nc3ccccc3[nH]2)nc2ccccc12 93.3

* * *

System: MDA-MB-435 melanoma
test-summary: NCI-60 one-dose screen, 48 h (100 = growth as untreated, 0 = no growth, -100 = all killed)
study-conditions: 10 µM unless noted
About 83,000 compounds went through this panel and 20% of them were active in at least one assay; those are over-represented in the sample as a whole.
quantity: growth (%)
// units = %; emit number, no label

Look over these answered cases.
Clc1cccc(/C=N/Nc2nc(N/N=C/c3cccc(Cl)c3)nc(N3CCCCC3)n2)c1 : 90.4
O=C(/C=C/c1cccc(Br)c1)c1cccc(OCCCCOc2cccc(C(=O)/C=C/c3cccc(Br)c3)c2)c1 : 105
CCOC(=O)c1cnc2c(-c3ccc(Cl)c(Cl)c3)cnn2c1 : -20.3
O=C(COc1ccc(/C=C2\C(=O)Nc3cc(Cl)ccc32)cc1)Nc1ccc(Cl)cc1 : 51.2
C#CCOc1ccc(-c2csc(NC(=O)C=C)n2)cc1NS(=O)(=O)c1cccc2c(N(C)C)cccc12 : 14.7

Which growth is reported for this compound? Fc1cccc(Cl)c1/C=N/Nc1nc(N/N=C/c2c(F)cccc2Cl)nc(N2CCCCC2)n1 3.75

Which growth is reported for this compound? Clc1ccc2[nH]cc(-c3cncn3CCc3ccc4c(c3)OCO4)c2c1 71.3

Which growth is reported for this compound? Cc1[nH]c(C(=O)Nc2ccc(C(=O)NCC3CCNCC3)cc2OC(C)C)c(Cl)c1Cl 72.2

Which growth is reported for this compound? COc1ccc2c(c1)c(/C=N/Nc1ccnc3cc(Cl)ccc13)cn2C -92.9

* * *

This listing pairs molecules with measured growth.
System: SW-620 colon
test-summary: NCI-60 one-dose screen, 48 h (100 = growth as untreated, 0 = no growth, -100 = all killed)
study-conditions: 10 µM unless noted
About 83,000 compounds went through this panel and 20% of them were active in at least one assay; those are over-represented in the sample as a whole.
// units = %; emit number, no label

Look over these answered cases.
CC(C)NC(=O)c1cc(-c2ccc(NC(=O)Nc3ccc(F)cc3)cc2)nc2cccnc12 : 108
CNC(=O)c1cc(-n2ccc3cc(NC(=O)Nc4ccc(N5CCN(C)CC5)c(C(F)(F)F)c4)ccc32)ccn1 : 21.5
CCOC(=O)c1cccc(NC2=C(Cl)C(=O)c3nc(C)ccc3C2=O)c1 : 84.3

Which growth is reported for this molecule? CC1(C)CC[C@]2(C(=O)O)CC[C@]3(C)C(=CC[C@@H]4[C@@]5(C)CC[C@H](NOCCCN)C(C)(C)[C@@H]5CC[C@]43C)[C@@H]2C1 83.8

Which growth is reported for this molecule? CCC1=Cc2c(OC)cccc2OC12C=Cc1c(OC)cccc1O2 (stereo unspecified) 30

Which growth is reported for this molecule? C=CCSC1=NC2C(N(CC)C(=O)N2CC)N1/N=C/C=C/c1ccccc1OC (stereo unspecified) 69.7

Which growth is reported for this molecule? COc1cc2oc(-c3cccc(NC(=O)[C@@H](N)C(C)C)c3)cc(=O)c2c(OC)c1OC 105

Which growth is reported for this molecule? N#Cc1c(-c2cccs2)c(C#N)c(=O)n(Cc2nc3ccccc3[nH]2)c1N 95.6

Which growth is reported for this molecule? Cn1cc(-c2nc(N)nnc2-c2c[nH]c3ccc(Br)cc23)c2cc(F)ccc21 95.1

Which growth is reported for this molecule? Cc1csc(/N=C(N)/N=C(\N)c2cccnc2)n1 53.2

Which growth is reported for this molecule? CC(=O)Nc1ccccc1-c1nc2ccccc2s1 107

* * *

Test system: COLO 205 colon
test-summary: NCI-60 one-dose screen, 48 h (100 = growth as untreated, 0 = no growth, -100 = all killed)
study-conditions: 10 µM unless noted
This is part of a sample that, as a whole, favours compounds with a hit. Of some 83,000 tested, about 20% had one in any assay.
This listing pairs compounds with measured growth.
// units = %; emit number, no label

CCOC(=O)Nc1ccc2c(ccn2C(=O)c2cccc(F)c2)c1 : -3.54
C1=CC(c2nn3c(-c4ccccc4)nnc3s2)=Cc2ccccc2O1 : 90.2
CC(C)(C)c1cc(NC(=O)Nc2ccc(-c3cn4c5c(sc4n3)CCc3cn(CCCN4CCCCC4)cc3-5)cc2)no1 : 5.79
Cc1ccc2c(n1)C(=O)C(Cl)=C(Nc1cccc(C)c1C)C2=O : 87.7
Fc1cccc(Cl)c1/C=N/Nc1nc(N/N=C/c2c(F)cccc2Cl)nc(N2CCCCC2)n1 : -16.7
O=C(CCCCCCN1CC(=O)N2[C@@H](C3CC3)c3[nH]c4ccccc4c3C[C@H]2C1=O)NO : 98
Cn1cc(-c2cc3ncnc(Nc4ccc(CC(=O)Nc5nc(C(C)(C)C)cs5)cc4)c3s2)cn1 : 65.8
O=C(Nc1ccccc1)Nc1nc2ccc([N+](=O)[O-])cc2[nH]1 : 88.7

Which growth is reported for this compound? Cc1ccc(C(=O)CSc2nc3ccccc3c(=O)n2C)cc1 119

* * *

System: HOP-92 NSCLC
test-summary: NCI-60 one-dose screen, 48 h (100 = growth as untreated, 0 = no growth, -100 = all killed)
study-conditions: 10 µM unless noted
The panel holds about 83,000 compounds, 20% with a hit somewhere; the sample as a whole holds those more often.
quantity: growth (%)
// units = %; emit number, no label

Look over these answered cases.
COc1cc(C(=O)c2cc(C(C)=O)c3cccc(C)n23)cc(OC)c1OC : 33.5
CN1CC[C@@H]2[C@@]3(C)CC[C@H](O)C(C)(C)[C@@H]3CC[C@@]2(C)[C@]2(C)CC[C@@]3(CO)CCC(C)(C)C[C@@H]3C12 (some centres not stated) : 66.8

Which growth is reported for this compound? C=C(C)[C@@H]1CC[C@]2(C(=O)N3CCN(C)CC3)CC[C@]3(C)[C@H](CC[C@@H]4[C@@]5(C)CC[C@H](OP(=O)(OCC)OCC)C(C)(C)[C@@H]5CC[C@]43C)[C@@H]12 63.8

Which growth is reported for this compound? CCc1cc2c(cc1Cl)nc1c(=O)[nH]c(=O)nc-1n2CCOCC(C)(C)C 110

Which growth is reported for this compound? COc1cc2oc(-c3cccc(NC(=O)c4cccc([N+](=O)[O-])c4)c3)cc(=O)c2c(OC)c1OC -0.118

* * *

System: 786-0 renal
test-summary: NCI-60 one-dose screen, 48 h (100 = growth as untreated, 0 = no growth, -100 = all killed)
study-conditions: 10 µM unless noted
The panel holds about 83,000 compounds, 20% with a hit somewhere; the sample as a whole holds those more often.
# binarize growth: threshold 60% inclusive, high side 1, low side -1

# example entries with known answers
C#Cc1cc(C(=O)Nc2ccc(CNCCN3CCOCC3)c(C(F)(F)F)c2)ccc1C : 1
Cn1cc(-c2nc(N)nnc2-c2c[nH]c3ccc(Br)cc23)c2cc(F)ccc21 : 1
CCOC(=O)c1c(NC(=O)c2cccc(C(F)(F)F)c2)sc2c3c(ccc12)OCN(C)C3 : -1
CC(C)[C@H]1c2[nH]c3ccccc3c2C[C@H]2C(=O)N(CCCCCCC(=O)NO)CC(=O)N12 : 1
CCOC(=O)Nc1ccc2c(ccn2C(=O)c2cccc(F)c2)c1 : -1
C[C@H](Nc1ncnc2ccc(-c3cnc(Cl)c(NS(C)(=O)=O)c3)cc12)c1ccccc1 : -1

Kindly determine if growth recorded for CNC(=O)Nc1ccc(Nc2cc(-c3ccc(-n4cccn4)cc3)[nH]n2)c(C)c1 is above or exactly 60%. 1
